I'd be grateful if you could share measured pIC50 for these entries.
- Tested on: cultured human mast cells (CHMC), ionomycin-induced degranulation
- Test: CHMC low cell density ionomycin activation: tryptase assay
- Assay type: cell-based
- Condition Parameters: low cell density CHMC, ionomycin activation, 3-point, read-out: LD Tryptase, CHMC, Iono, 3pt
pIC50: −log10 of the molar value.

• CC1(C)Oc2ccc(Nc3nc(Nc4cccc(-c5cocn5)c4)ncc3F)nc2NC1=O = < 5.00
• CNC(=O)COc1c(C)cc(Nc2ncc(F)c(Nc3ccc4c(n3)NC(=O)C(C)(C)O4)n2)cc1Cl = < 5.00
• Cc1cc(Nc2ncc(F)c(Nc3ccc4c(n3)NC(=O)C(C)(C)O4)n2)cc(Cl)c1OC1CCCC1 = < 5.00
• CCn1ncc2ccc(Nc3ncc(F)c(Nc4ccc5c(n4)NC(=O)C(C)(C)O5)n3)cc21 = < 5.00
• CNC(=O)c1ccc(Nc2ncc(F)c(Nc3ccc4c(n3)NC(=O)C(C)(C)O4)n2)cc1Cl = < 5.00
• Cn1ncc2ccc(Nc3ncc(F)c(Nc4ccc5c(n4)NC(=O)C(C)(C)O5)n3)cc21 [Compound 1056] = < 5.00
• Cn1ncc2ccc(Nc3ncc(F)c(Nc4ccc5c(n4)NC(=O)C(C)(C)O5)n3)cc21 [Compound 1057] = < 5.00
• CCOC(=O)COc1c(C)cc(Nc2ncc(F)c(Nc3ccc4c(n3)NC(=O)C(C)(C)O4)n2)cc1Cl = < 5.00
• CN1C(=O)C(C)(C)Oc2ccc(Nc3nc(Nc4cccc(-c5cnco5)c4)ncc3F)nc21 = < 5.00
• CNC(=O)COc1c(C)cc(Nc2ncc(F)c(Nc3ccc4c(n3)NC(=O)C(C)(C)O4)n2)cc1C = > 5.00

Could I get pIC50 for every one of these entries?
1. CCOC(=O)COc1c(C)cc(Nc2ncc(F)c(Nc3ccc4c(n3)NC(=O)C(C)(C)O4)n2)cc1C
2. CNC(=O)COc1cccc(Nc2ncc(F)c(N(C)c3ccc4c(c3)NC(=O)C(C)(C)O4)n2)c1
3. Cn1ncc2ccc(Nc3ncc(F)c(Nc4ccc5c(n4)NCC(C)(C)O5)n3)cc21
4. Cc1cc(Nc2ncc(F)c(Nc3ccc4c(n3)NC(=O)C(C)(C)O4)n2)cc(Cl)c1OCC(=O)NCC(O)CO (stereo not drawn)
5. Fc1cnc(Cl)nc1Nc1ccc2c(n1)NCCO2
6. CNC(=O)COc1cccc(Nc2ncc(F)c(Nc3ccc4c(n3)N(C)C(=O)C(C)(C)O4)n2)c1

A.
["< 5.00", "< 5.00", "> 5.00", "< 5.00", "< 5.00", "< 5.00"]

Could I get pIC50 for every one of these entries?
1. CCOC(=O)COc1c(C)cc(Nc2ncc(F)c(Nc3ccc4c(c3)NC(=O)C(C)(C)O4)n2)cc1Cl
2. Fc1cnc(Nc2ccc(N3CCOCC3)cc2)nc1Nc1ccc2c(n1)NCCO2
3. C[C@@H]1Oc2ccc(Nc3nc(Nc4cc(C(C)(C)C)[nH]n4)ncc3F)nc2NC1=O
4. CNC(=O)COc1cccc(Nc2ncc(F)c(Nc3ccc4c(n3)NCC(C)(C)O4)n2)c1
5. Cc1cc(Nc2ncc(F)c(Nc3ccc4c(n3)NC(=O)C(C)(C)O4)n2)cc(Cl)c1OC(C)C

A.
> 5.00
< 5.00
< 5.00
< 5.00
> 5.00

Hello, the source for this data is patent US7560466B2, in case you need it.
